// data source = PubChem BioAssay AID1159580

Quick reference: normalized growth of the listed items.
Experiment: chemical genetic growth profiling, strain panel (AID 1159580);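 note: tested at 20 µM; growth read once vehicle control cultures reached saturation at 30 °C; 1 = growth at the plate median or of vehicle wells; lower values mean less growth of the strain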
Conditions: S. cerevisiae deletion strains, growth OD, locus YJL092W, strain hpr5, hits give low values
Among all 5,500 compounds or so, about 2,000 (36%) were called active. Not shown: some 18% with an inconclusive outcome. The list shows a part of the results.
Metric: normalized growth

Compound	Data value
Cc1cccc(C)c1OCC(C)N (centres undefined)	1.01
CC(=O)O[C@@H]1C[C@@]2(C)C(CC[C@@H]2C(C)=O)C2CCC3=CC(=O)CC[C@]3(C)C21 (some centres undefined)	1.01
CC(Oc1ccccc1)C(=O)N[C@@H]1C(=O)N2[C@@H]1SC(C)(C)[C@@H]2C(=O)O (some centres undefined)	0.993
C[C@]12CCC(=O)C=C1CCC1C2CC[C@@]2(C)C1CC[C@@H]2O (some centres undefined)	0.997
CC1CC2C3CC(F)C4=CC(=O)C=CC4(C)C3(F)C(O)CC2(C)C1(O)C(=O)CO (centres undefined)	1
CN(C)c1ccc(C(=C2C=CC(=[N+](C)C)C=C2)c2ccc(N(C)C)cc2)cc1	0.548
CCOC(=O)c1c(C)cc(O)c(C=O)c1O	0.756
CCOC(=O)c1c(C)c(Cl)c(O)c(Cl)c1O	0.456
NC(=O)c1ccc[n+]([C@@H]2O[C@H](COP(=O)([O-])OP(=O)(O)OC[C@H]3O[C@@H](n4cnc5c(N)ncnc54)[C@H](O)[C@@H]3O)[C@@H](O)[C@H]2O)c1	1.02

====

Assay: chemical genetic growth profiling, strain panel (AID 1159580);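 note: tested at 20 µM; growth read once vehicle control cultures reached saturation at 30 °C; 1 = growth at the plate median or of vehicle wells; lower values mean less growth of the strain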
Conditions: S. cerevisiae deletion strains, growth OD, locus YKL009W, strain mrt4
The campaign covered roughly 5,500 compounds. About 2,000 (36%) were called active. Roughly 18% stayed inconclusive and do not appear here. Cut-off read from the data, not from the text of the source: active = normalized growth mostly below about 0.91 (no sharp cut-off); inconclusive = no clear call, values can overlap the other calls; inactive = mostly above about 0.92. This is one part of the list.
Labels: true for active, false for inactive

Molecule	Assigned category
Cc1c(O)c(C(=O)CC(C)C)c2oc3c(C(=O)CC(C)C)c(O)c(C)c(O)c3c2c1O	false
CC(C)CC(NC(=O)C(Cc1ccccc1)NC(=O)CNC(=O)CNC(=O)C(N)Cc1ccc(O)cc1)C(=O)O (stereo unspecified)	false
CC(C[N+](C)(C)C)OC(N)=O (stereo unspecified)	false
C[N+](C)(C)CCCCCC[N+](C)(C)C	false
CC(=O)c1c(O)c(C)c(O)c2c1oc1c(C(C)=O)c(O)c(C)c(O)c12	false
CCCCCCCCCCCCCCCC[N+](C)(C)C	true

====

Test: chemical genetic growth profiling, strain panel (AID 1159580);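 note: tested at 20 µM; growth read once vehicle control cultures reached saturation at 30 °C; 1 = growth at the plate median or of vehicle wells; lower values mean less growth of the strain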
Conditions: S. cerevisiae deletion strains, growth OD, locus YJR075W, strain HOC1, hits give low values
Screen size: about 5,500 compounds; about 2,000 (36%) were called active. Not shown: some 18% with an inconclusive outcome. This is one part of the list.
# reported normalized growth; entries follow

Compound	normalized growth
O=c1onc2cnc3ccccc3n12	0.958
C[C@@H](NCCc1ccc(O)cc1)[C@@H](O)c1ccc(O)cc1	0.993
CN(C)CC/C=C1\c2ccccc2Sc2ccc(Cl)cc21	0.884
COc1cc2c(cc1OC)C(=O)OC2	1.01
COc1cc2c(cc1OC)Cc1cc(OC)c(OC)cc1Cc1cc(OC)c(OC)cc1C2	1.02
CCOC(=O)CSC(=S)NCc1ccc(C)cc1	0.82
C=C(C)[C@@H]1[C@H]2OC(=O)[C@@H]1[C@]1(O)C[C@H]3O[C@]34C(=O)O[C@H]2[C@]14C	1
COc1ccc(OC)c(S(=O)(=O)Oc2ccc(C#N)cc2)c1	1
CC1(C)OC(=O)NC1=O	0.981
S=c1nc[nH]c2nc[nH]c12	0.996
C=Cc1c2[nH]c(c1C)C=c1[nH]c(c(C)c1C=C)=CC1N=C(C=c3[nH]c(c(C)c3CCC(=O)O)=C2)C(CCC(=O)O)=C1C (stereo not drawn)	0.947
C=Cc1c2[nH]c(c1C)Cc1[nH]c(c(C)c1C=C)C=C1N=C(C=c3[nH]c(c(C)c3CCC(=O)O)=C2)C(CCC(=O)O)=C1C	1.01
COc1cccc(OC)c1C(C)(O)C(OC)OC (stereo not drawn)	1
COc1ccc(OC)c(S(=O)(=O)Nc2ccc(C#N)cc2)c1	1.01
OC1(c2ccc(Cl)cc2)CCN(Cc2c[nH]c3ccccc23)CC1	1.01
CCCS(=O)(=O)c1c(C)c(C)n(Cc2ccccc2)c1N	0.99
O=C(CSc1nnnn1-c1ccccc1)NC1Cc2ccccc2C1	1.01
Clc1ccc(N2CCN(Cc3c[nH]c4ncccc34)CC2)cc1	0.929
CC(CCc1ccccc1)NC(C)C(O)c1ccc(O)cc1 (stereo not drawn)	1.01
COc1cc2c(cc1OC)CC(=O)OC2	0.995
CCOC(=O)C1CCN(C(=S)Nc2ccccc2C(F)(F)F)CC1	0.982
O=C(O)C1=CCCN(CCON=C(c2ccccc2)c2ccccc2)C1	1
CC(=O)c1c(O)c(C)c(O)c2c1oc1c(C(C)=O)c(O)c(C)c(O)c12	0.974
